biological target: rat MCH1 receptor (Rattus norvegicus, UniProt P97639); construct: operatively linked to DNA encoding the rat MCH1 receptor so as to permit expression thereof; assay: Radioligand binding assay at cloned rat MCH1 receptor ([3H]Compound A); conditions: cloned rat MCH1, Peakr293 cell membranes, 0.08 nM [3H]Compound A, 25° C., 90 minutes; read-out: Ki(MCH-1)
Sequence (P97639 whole entry): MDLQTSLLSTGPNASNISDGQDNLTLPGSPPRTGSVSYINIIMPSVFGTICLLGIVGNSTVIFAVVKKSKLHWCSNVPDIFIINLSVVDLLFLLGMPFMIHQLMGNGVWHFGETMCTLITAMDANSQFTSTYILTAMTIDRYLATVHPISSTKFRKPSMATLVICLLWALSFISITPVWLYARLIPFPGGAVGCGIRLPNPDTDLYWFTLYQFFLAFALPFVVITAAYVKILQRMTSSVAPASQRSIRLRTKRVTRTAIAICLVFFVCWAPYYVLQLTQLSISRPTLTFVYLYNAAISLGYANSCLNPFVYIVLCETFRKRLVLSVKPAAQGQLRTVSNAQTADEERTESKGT
MEASURED_METRIC: Ki (nM)

Sample answers from the record:
Cc1ccc(NC(=O)C(C)C)cc1C1CCN(CCCNC(=O)C2(c3ccc(F)cc3Cl)CCCCC2)CC1 | 2.4
CCCC(=O)Nc1cccc(C2CCN(CCCNC(=O)C3(c4ccc(F)cc4)CCCCC3)CC2)c1 | 6.4
CC(C)OC(=O)Nc1cccc(C2CCN(CCCNC(=O)C3(c4ccc(F)cc4Cl)CCCCC3)CC2)c1 | 42
Cc1ccc(NC(=O)C(C)C)cc1C1CCN(CCCNC(=O)C2(c3ccc(Cl)cc3)CC2)CC1 | 10.8
CC(=O)Nc1cccc(C2CCN(CCCNC(=O)C3(c4ccc(Cl)cc4)CCC3)CC2)c1 | 34.3

P. CC(C)C(=O)Nc1cccc(C2CCN(CCCNC(=O)C3(c4ccc(F)cc4Cl)CCCCC3)CC2)c1
Q. CC(C)C(=O)Nc1cccc(C2CCN(CCCNC(=O)C3(c4ccc(F)cc4)CCCCC3)CC2)n1
R. CC(C)C(=O)Nc1ccc(F)c(C2CCN(CCCNC(=O)C(F)(F)c3ccccc3)CC2)c1
S. CC(=O)Nc1cccc(C2CCN(CCCNC(=O)C3(c4ccc(Cl)cc4)CCCC3)CC2)c1
T. CC(C)C(=O)Nc1cc(C2CCN(CCCNC(=O)C(c3ccc(F)cc3)c3ccc(F)cc3)CC2)ccc1F
[in] Rank items: key Ki, increasing. A ranking is expressed here by listing the labels in the requested order.
[out] T, S, P, Q, R
(T: 2.8 nM, S: 6.7 nM, P: 10.2 nM, Q: 16.9 nM, R: 48.7 nM)

---

molecular target: rat MCH1 receptor (Rattus norvegicus, UniProt P97639); construct: operatively linked to DNA encoding the rat MCH1 receptor so as to permit expression thereof; assay: Radioligand binding assay at cloned rat MCH1 receptor ([3H]Compound A); conditions: cloned rat MCH1, Peakr293 cell membranes, 0.08 nM [3H]Compound A, 25° C., 90 minutes; read-out: Ki(MCH-1)
MEASURED_METRIC: Ki (nM)

Sample answers from the record:
Cc1ccc(C(C(=O)NCCCN2CCC(c3cccc(NC(=O)C(C)C)c3)CC2)c2ccc(C)cc2)cc1 | 2.3
CC(C)C(=O)Nc1ccc(F)c(C2CCN(CCCNC(=O)C(c3ccc(Cl)cc3)c3ccc(Cl)cc3)CC2)c1 | 2.2

A. CCCC(=O)Nc1cccc(C2CCN(CCCNC(=O)C(c3ccccc3)c3ccccc3)CC2)c1
B. CCC(=O)Nc1cccc(C2CCN(CCCNC(=O)C(CC)(c3ccccc3)c3ccccc3)CC2)c1
[in] Which one would you say has the larger Ki value: A , or B ? Bench note: the answer is the label of the chosen record.
[out] B
(B: 8.9 nM, A: 3.1 nM)

---

target: rat MCH1 receptor (Rattus norvegicus); construct: operatively linked to DNA encoding the rat MCH1 receptor so as to permit expression thereof; experiment: Radioligand binding assay at cloned rat MCH1 receptor ([3H]Compound A); details: cloned rat MCH1, Peakr293 cell membranes, 0.08 nM [3H]Compound A, 25° C., 90 minutes; read-out: Ki(MCH-1)
MEASURED_METRIC: Ki (nM)

Sample answers from the record:
CC(C)C(=O)Nc1c(F)cc(F)c(C2CCN(CCCNC(=O)C(c3ccccc3)c3ccccc3)CC2)c1F | 9.1
CCCC(=O)Nc1cc(C2CCN(CCCNC(=O)C(c3ccccc3)c3ccccc3)CC2)ccc1F | 4.9
CC(C)CC(=O)Nc1cccc(C2CCN(CCCNC(=O)C(c3ccccc3)c3ccccc3)CC2)c1 | 11.8

A. CC(C)C(=O)Nc1cncc(C2CCN(CCCNC(=O)C(c3ccc(F)cc3)c3ccc(F)cc3)CC2)c1
B. Cc1ccc(NC(=O)C(C)C)cc1C1CCN(CCCNC(=O)[C@@H](C)c2ccc(F)cc2)CC1
C. CC(C)C(=O)Nc1ccc(F)c(C2CCN(CCCNC(=O)C3(c4ccc(F)cc4)CCCC3)CC2)c1
D. CC(C)(C(=O)NCCCN1CCC(c2cccc(NC(=O)C3CC3)c2)CC1)c1ccc(Cl)cc1
[in] Rank items: key Ki, increasing. A ranking is expressed here by listing the labels in the requested order.
[out] A, C, D, B

---

molecular target: rat MCH1 receptor (Rattus norvegicus, UniProt P97639); construct: operatively linked to DNA encoding the rat MCH1 receptor so as to permit expression thereof; assay: Radioligand binding assay at cloned rat MCH1 receptor ([3H]Compound A); conditions: cloned rat MCH1, Peakr293 cell membranes, 0.08 nM [3H]Compound A, 25° C., 90 minutes; read-out: Ki(MCH-1)
pKi: −log10 of the molar value.
MEASURED_METRIC: pKi

Sample answers from the record:
CCCC(=O)Nc1ccc(C2CCN(CCCNC(=O)C(c3ccccc3)c3ccccc3)CC2)cc1 [Example 149] | 6.33
CC(C)C(=O)Nc1cccc(C2CCN(CCCNC(=O)C(c3ccc(F)cc3)c3ccc(F)cc3)CC2)n1 [Example 29] | 8.64
CC(=O)Nc1cccc(C2CCN(CCCNC(=O)C(c3ccc(F)cc3)c3ccc(F)cc3)CC2)c1 [Example 28] | 9.40
CC(C)OC(=O)Nc1cccc(C2CCN(CCCNC(=O)C(C)(C)c3ccc(Cl)cc3)CC2)c1 [Example 142] | 7.11
CC(C)C(=O)Nc1cc(C2CCN(CCCNC(=O)C(C)c3ccc(F)cc3)CC2)ccc1F (stereo not shown) [Example 46] | 7.35

1. CCC(C(=O)NCCCN1CCC(c2cccc(NC(=O)C3CC3)c2)CC1)(c1ccccc1)c1ccccc1 [Example 122]
2. CC(C)C(=O)Nc1cccc(C2CCN(CCCNC(=O)C3(c4ccc(Cl)cc4)CC3)CC2)c1 [Example 44]
3. CCC(=O)Nc1cccc(C2CCN(CCCNC(=O)C3(c4ccc(F)cc4)CCCCC3)CC2)c1 [Example 61]
4. O=C(Nc1cccc(C2CCN(CCCNC(=O)C3(c4ccc(F)cc4)CCCC3)CC2)c1)C1CC1 [Example 121]
[in] Highest pKi first, then in falling order down to the smallest. A ranking is expressed here by listing the labels in the requested order.
[out] 1, 4, 2, 3
(1: 8.32, 4: 7.99, 2: 7.71, 3: 7.20)

---

molecular target: rat MCH1 receptor (Rattus norvegicus, UniProt P97639); construct: operatively linked to DNA encoding the rat MCH1 receptor so as to permit expression thereof; assay: Radioligand binding assay at cloned rat MCH1 receptor ([3H]Compound A); conditions: cloned rat MCH1, Peakr293 cell membranes, 0.08 nM [3H]Compound A, 25° C., 90 minutes; read-out: Ki(MCH-1)
pKi: −log10 of the molar value.
MEASURED_METRIC: pKi

CCCC(=O)Nc1cccc(C2CCN(CCCNC(=O)C3(c4ccc(Cl)cc4)CCCCC3)CC2)c1 | 8.54
Cc1ccc(NC(=O)C(C)C)cc1C1CCN(CCCNC(=O)C(F)(F)c2ccccc2)CC1 | 7.40

a. COc1ccc(NC(=O)C(C)C)cc1C1CCN(CCCNC(=O)C(c2ccccc2)c2ccccc2)CC1
b. CC(=O)Nc1cccc(C2CCN(CCCNC(=O)C3(c4ccc(Cl)cc4)CC3)CC2)c1
c. CCCC(=O)Nc1cccc(C2CCN(CCCNC(=O)C(C)(C)c3ccc(Cl)cc3)CC2)c1
[in] Highest pKi first, then in falling order down to the smallest. A ranking is expressed here by listing the labels in the requested order.
[out] c, b, a
(c: 8.11, b: 7.26, a: 7.04)

P. CCC(C(=O)NCCCN1CCC(c2cccc(NC(=O)C(C)C)c2)CC1)(c1ccccc1)c1ccccc1
Q. CCC(=O)Nc1cccc(C2CCN(CCCNC(=O)C(c3ccc(Cl)cc3)c3ccc(Cl)cc3)CC2)c1
R. CN(C)C(=O)Nc1cccc(C2CCN(CCCNC(=O)C(c3ccc(F)cc3)c3ccc(F)cc3)CC2)c1
S. CC(C)C(=O)Nc1ccc(F)c(C2CCN(CCCNC(=O)C3(c4ccc(F)cc4)CCCCC3)CC2)c1
[in] Highest pKi first, then in falling order down to the smallest. A ranking is expressed here by listing the labels in the requested order.
[out] Q, S, P, R
(Q: 9.30, S: 8.40, P: 7.86, R: 7.48)

---

biological target: rat MCH1 receptor (Rattus norvegicus, UniProt P97639); construct: operatively linked to DNA encoding the rat MCH1 receptor so as to permit expression thereof; assay: Radioligand binding assay at cloned rat MCH1 receptor ([3H]Compound A); details: cloned rat MCH1, Peakr293 cell membranes, 0.08 nM [3H]Compound A, 25° C., 90 minutes; read-out: Ki(MCH-1)
pKi: −log10 of the molar value.
MEASURED_METRIC: pKi

CCCC(=O)Nc1cc(C2CCN(CCCNC(=O)C(c3ccc(C)cc3)c3ccc(C)cc3)CC2)ccc1F [Example 109] | 8.33
CC(C)C(=O)Nc1ccc(F)c(C2CCN(CCCNC(=O)C3(c4ccc(F)cc4Cl)CCCCC3)CC2)c1 [Example 133] | 8.23
Cc1ccc(NC(=O)C(C)C)cc1C1CCN(CCCNC(=O)C2(c3ccc(F)cc3)CCCC2)CC1 [Example 93] | 8.31

1. CC(C)C(=O)Nc1cccc(C2CCN(CCCNC(=O)C3(c4ccc(F)cc4)CCCCC3)CC2)c1 [Example 40]
2. CC(=O)Nc1cccc(C2CCN(CCCNC(=O)C(c3ccc(Cl)cc3)c3ccc(Cl)cc3)CC2)c1 [Example 55]
3. CCSC(C(=O)NCCCN1CCC(c2cccc(NC(=O)C(C)C)c2)CC1)(c1ccccc1)c1ccccc1 [Example 16]
4. Cc1ccc(C(C(=O)NCCCN2CCC(c3cccc(NC(=O)C4CC4)c3)CC2)c2ccc(C)cc2)cc1 [Example 111]
[in] Rank items: key pKi, increasing. A ranking is expressed here by listing the labels in the requested order.
[out] 3, 1, 4, 2
(3: 5.98, 1: 8.10, 4: 8.92, 2: 9.52)

P. CC(C)OC(=O)Nc1cccc(C2CCN(CCCNC(=O)C(c3ccc(F)cc3)c3ccc(F)cc3)CC2)c1 [Example 146]
Q. CC(=O)Nc1cccc(C2CCN(CCCNC(=O)C(c3ccccc3)(c3ccccc3)c3ccccc3)CC2)c1 [Example 105]
[in] Which one would you say has the larger pKi value: P , or Q ? Bench note: the answer is the label of the chosen record.
[out] Q
(Q: 8.55, P: 8.21)

a. CCCC(=O)Nc1ccc(OC)c(C2CCN(CCCNC(=O)C(c3ccccc3)c3ccccc3)CC2)c1 [Example 22]
b. CC(C)C(=O)Nc1cccc(C2CCN(CCCNC(=O)C3(c4ccc(Cl)cc4)CCCC3)CC2)n1 [Example 84]
c. CC(C)(C)C(=O)Nc1cccc(C2CCN(CCCNC(=O)C(c3ccccc3)c3ccccc3)CC2)c1 [Example 18]
d. CC(C(=O)NCCCN1CCC(c2cccc(NC(=O)C3CC3)c2)CC1)(c1ccccc1)c1ccccc1 [Example 123]
[in] Rank items: key pKi, increasing. A ranking is expressed here by listing the labels in the requested order.
[out] a, c, b, d
(a: 6.86, c: 7.50, b: 7.90, d: 8.55)

From: patent US20060217418A1
